Reported survival values are given for each entry in this list.
system: DeltatarO mutant; experiment: S. aureus survival, RN4220 and DeltatarO strains – OD600, teichoic acid synthesis inhibitors, primary screen (AID 463173); conditions: S. aureus RN4220 wild type/DeltatarO growth, OD600, 18 h, stronger effect = lower value, screened at 18.75 µg/mL (by protocol)
Screen size: about 52,000 compounds; about 4,300 (8.3%) were called active. The sample holds actives, similar compounds and a random draw of the others, so the mix is not that of the screen.

{"columns": ["molecule", "experimental system", "survival"],
 "data": [
  ["O=C1OC(Nc2ccccc2C(F)(F)F)c2ccccc21 (stereo unspecified)", "DeltatarO mutant", "45% (inactive)"],
  ["Cc1ccc(-c2noc(-c3ccc(NCc4cccnc4)c([N+](=O)[O-])c3)n2)cc1", "DeltatarO mutant", "104% (inactive)"],
  ["CCOc1ccc(N(C(=O)c2ccc(OC)cc2)S(=O)(=O)c2ccc3c(c2)n(C)c(=O)n3C)cc1", "DeltatarO mutant", "37% (active)"],
  ["CCOC(=O)c1c(C)[nH]c(CCC(=O)NCc2ccccc2C)c1C", "DeltatarO mutant", "80% (inactive)"],
  ["COc1ccc(-c2cc(OC(=O)c3cccc(Cl)c3)c3c(C)oc(C)c3c(=O)c2)cc1", "DeltatarO mutant", "132% (inactive)"],
  ["O=C(Nc1cccc(C(F)(F)F)c1)c1cccnc1NCCO", "DeltatarO mutant", "77% (inactive)"],
  ["Cn1ncc(C(=O)N2CCN(c3ccccc3)CC2)c1C1CCN(C(=O)OC(C)(C)C)CC1", "DeltatarO mutant", "78% (inactive)"],
  ["CC(C)Cc1ccc(S(=O)(=O)Nc2cc3c(cc2N2CCOCC2)n(C)c(=O)c(=O)n3C)cc1", "DeltatarO mutant", "79% (inactive)"],
  ["O=C(Nc1ccc2ncccc2c1)c1ccccc1", "DeltatarO mutant", "94% (inactive)"],
  ["O=C(c1ccc2c(c1)N(Cc1ccc(Cl)cc1)C(=O)c1ccccc1S2(=O)=O)N1CCCCCC1", "DeltatarO mutant", "64% (inactive)"],
  ["COc1cc(OC)cc(C(=O)NCC(c2cccs2)S(=O)(=O)c2ccc(F)c(C)c2)c1 (stereo unspecified)", "DeltatarO mutant", "100% (inactive)"],
  ["CCN(CC)S(=O)(=O)c1cccc(C(=O)Nc2ccccc2C(=O)Nc2ccc(OC)cc2)c1", "DeltatarO mutant", "78% (inactive)"],
  ["CCCCCC(=O)N(c1ccc(OCC)cc1)S(=O)(=O)c1ccc2c(c1)n(C)c(=O)n2C", "DeltatarO mutant", "111% (inactive)"],
  ["O=C1OC(Nc2ccc3ncccc3c2)c2ccccc21 (stereo unspecified)", "DeltatarO mutant", "30% (active)"],
  ["Cc1ccc(N(C)S(=O)(=O)c2ccc3c(c2)C(C)(C)C(=O)N3C)cc1C", "DeltatarO mutant", "80% (inactive)"],
  ["CCOc1ccc(N(C(=O)c2ccc(C)cc2)S(=O)(=O)c2ccc3c(c2)n(C)c(=O)n3C)cc1", "DeltatarO mutant", "45% (inactive)"]
]}
